- Tested on: HCT-116
- Assay overview: Cytotoxicity against human HCT116 cells up to 100 uM after 72 hrs by MTT assay
- Assay type: functional, cell-based
The source made the active and inactive calls. The calls are words filed in the database; no cut-off is given here.
Outcomes: true (1) (active), false (0) (inactive)

• COCOCCc1cn(COC)c(=O)nc1OC = false (0)
• COCn1cc(CCOC(C)=O)c(=O)[nH]c1=O = false (0)
• OCCc1cnc(Cl)nc1Cl = false (0)
• COCn1cc(CCO)c(=O)[nH]c1=O = false (0)
• COc1nc(Cl)ncc1CCF = false (0)
• CC(=O)OCCc1c[nH]c(=O)[nH]c1=O = false (0)
• COCn1cc(CCO)c(=O)n(COC)c1=O = false (0)
• COCOCCc1cnc(OC)nc1OC = true (1)
• Clc1ncc2c(n1)OCC2 = true (1)
• CC(=O)OCCc1cnc(Cl)nc1Cl = true (1)
• COCn1cc(CCOC(C)=O)c(=O)n(COC)c1=O = false (0)
